Target: T1, human IL-18BP (human, UniProt O95998 31-194)
T1 construct: also called hIL-18BP; Mature Human Isoform A
T1 sequence: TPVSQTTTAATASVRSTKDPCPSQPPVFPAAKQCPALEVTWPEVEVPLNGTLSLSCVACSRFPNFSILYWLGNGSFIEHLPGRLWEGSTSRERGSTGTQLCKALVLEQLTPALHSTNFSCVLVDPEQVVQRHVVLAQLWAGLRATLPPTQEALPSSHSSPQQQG
Assay: BLI, apparent KD, one conc.
MEASURED PARAMETER: Kd (pM)
State the answer as a number, implicitly in pM.

I am curious: what Kd value has been reported for SA301a light chain variant V29M (antibody, V domains shown) VH: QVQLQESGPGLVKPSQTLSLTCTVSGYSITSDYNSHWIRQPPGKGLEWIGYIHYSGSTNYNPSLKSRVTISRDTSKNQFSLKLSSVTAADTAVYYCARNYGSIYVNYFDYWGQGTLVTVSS VL: EIVLTQSPATLSLSPGERATLSCSASSSMSYMYWYQQKPGQAPRPLIYRTSNLASGIPARFSGSGSGTDFTLTISSLEPEDFAVYYCQQYHSYPTFGGGTKVEIK ?
350
